# assay_explanation: Half life in CD1 mouse at 2 mg/ kg, iv
# Assay type: ADME, organism-based
# Design: dose 2 mg/ kg, route intravenous
# stated_conditions: in vivo
observation_type: half-life (h)
Reply with just the number (in h).

# get_value(readout='half-life', item= COc1ccc2c(c1)/C(=N\OCCN1CCCC1)c1c-2c(O)nc2ccccc12 ) 1.5

---

# assay_explanation: Half life in CD1 mouse at 20 mg/ kg, po
# Assay type: ADME, organism-based
# Set-up: dose 20 mg/ kg, route oral
# stated_conditions: in vivo
observation_type: half-life (h)
Reply with just the number (in h).

# get_value(readout='half-life', item= COc1ccc2c(c1)/C(=N\OCCN1CCCC1)c1c-2c(O)nc2ccccc12 ) 2.2

---

# assay_explanation: Clearance in CD1 mouse at 2 mg/ kg, iv
# Assay type: ADME, organism-based
# Parameters: dose 2 mg/ kg, route intravenous
# stated_conditions: in vivo
observation_type: clearance (mL/min/kg)
Reply with just the number (in mL/min/kg).

# get_value(readout='clearance', item= COc1ccc2c(c1)/C(=N\OCCN1CCCC1)c1c-2c(O)nc2ccccc12 ) 193

---

# assay_explanation: Cytotoxicity against human Detroit 551 cells after 48 hrs by MTT assay
# Type: cell-based
For each entry below, report its log10 of GI50 at 48 h value.
Friendly reminder: values = log10 of GI50 at 48 h, unit µM.

# get_value(readout='log10 of GI50 at 48 h', item= COc1ccc2c(c1)/C(=N\OCCN1CCCCC1)c1c-2cnc2ccccc12 ) 0.80

# get_value(readout='log10 of GI50 at 48 h', item= CC[C@@]1(O)C(=O)OCc2c1cc1n(c2=O)Cc2cc3ccccc3nc2-1 ) 0.00

# get_value(readout='log10 of GI50 at 48 h', item= COc1ccc2c(c1)/C(=N\OCCN1CCCCC1)c1c-2c(=O)[nH]c2ccccc12 ) 0.88

# get_value(readout='log10 of GI50 at 48 h', item= COc1ccc2c(c1)/C(=N\OCCCN(C)C)c1c-2c(N2CCNCC2)nc2ccccc12 ) 0.44

# get_value(readout='log10 of GI50 at 48 h', item= COc1ccc2c(c1)/C(=N\OCCN1CCCC1)c1c-2cnc2ccccc12 ) 0.80

# get_value(readout='log10 of GI50 at 48 h', item= COc1ccc2c(c1)/C(=N\OCCN(C)C)c1c-2c(N2CCNCC2)nc2ccccc12 ) 0.43

# get_value(readout='log10 of GI50 at 48 h', item= COc1ccc2c(c1)/C(=N\OCCCN(C)C)c1c-2cnc2ccccc12 ) 0.54

# get_value(readout='log10 of GI50 at 48 h', item= COc1ccc2c(c1)/C(=N\OCCN1CCCCC1)c1c-2c(N2CCNCC2)nc2ccccc12 ) 0.36

# get_value(readout='log10 of GI50 at 48 h', item= COc1ccc2c(c1)/C(=N\OCCN1CCCC1)c1c-2c(O)nc2ccccc12 ) 1.09

# get_value(readout='log10 of GI50 at 48 h', item= COc1ccc2c(c1)/C(=N\OCCCN(C)C)c1c-2c(=O)[nH]c2ccccc12 ) 0.32

---

# System: Detroit 551
# assay_explanation: Selectivity index, ratio of IC50 for human Detroit 551 cells to IC50 for human SKHep cells
# Type: functional
For each entry below, report its RatioGI50 value.
Could you keep your reply to the number by itself?

# get_value(readout='RatioGI50', item= COc1ccc2c(c1)/C(=N\OCCN1CCOCC1)c1c-2c(N2CCNCC2)nc2ccccc12 ) 2.65

# get_value(readout='RatioGI50', item= COc1ccc2c(c1)/C(=N\OCCN1CCCC1)c1c-2c(N2CCNCC2)nc2ccccc12 ) 2.16

# get_value(readout='RatioGI50', item= COc1ccc2c(c1)/C(=N\OCCCN(C)C)c1c-2c(O)nc2ccccc12 ) 2.79

# get_value(readout='RatioGI50', item= COc1ccc2c(c1)/C(=N\OCCN(C)C)c1c-2c(O)nc2ccccc12 ) 3.75

# get_value(readout='RatioGI50', item= COc1ccc2c(c1)/C(=N\OCCCN(C)C)c1c-2cnc2ccccc12 ) 3.22

# get_value(readout='RatioGI50', item= COc1ccc2c(c1)/C(=N\OCCCN(C)C)c1c-2c(N2CCNCC2)nc2ccccc12 ) 0.94

# get_value(readout='RatioGI50', item= COc1ccc2c(c1)/C(=N\OCCN1CCCCC1)c1c-2c(O)nc2ccccc12 ) 1.75

# get_value(readout='RatioGI50', item= COc1ccc2c(c1)/C(=N\OCCN1CCCC1)c1c-2cnc2ccccc12 ) 4.17

# get_value(readout='RatioGI50', item= COc1ccc2c(c1)/C(=N\OCCN1CCCC1)c1c-2c(O)nc2ccccc12 ) 10.03

# get_value(readout='RatioGI50', item= COc1ccc2c(c1)/C(=N\OCCN(C)C)c1c-2c(N2CCNCC2)nc2ccccc12 ) 0.9
